Molecular target: UniProt P06493
Sequence (P06493 whole entry): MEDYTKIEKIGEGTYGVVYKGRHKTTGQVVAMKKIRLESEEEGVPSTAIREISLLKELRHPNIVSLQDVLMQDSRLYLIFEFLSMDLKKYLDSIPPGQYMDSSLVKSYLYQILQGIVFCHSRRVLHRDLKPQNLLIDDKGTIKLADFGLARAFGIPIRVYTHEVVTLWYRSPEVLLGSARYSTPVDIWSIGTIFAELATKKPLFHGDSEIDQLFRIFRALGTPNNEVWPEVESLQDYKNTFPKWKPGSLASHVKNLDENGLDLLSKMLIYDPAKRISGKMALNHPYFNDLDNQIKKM

>  <Smi>
Nc1n[nH]c(N)c1/N=N/c1ccncc1

>  <IC50>
1330 nM

$$$$
